System: E. coli UBMS 89-1 Tet M
Experiment Description: microbe, parasite or virus in culture
Assay type: cell-based
Condition Details: E. coli UBMS 89-1 Tet M
Where a name gives a salt, the structure may show the parent alone.
Property: MIC

Supply measured MIC of CN(C)c1cc(NC(=O)CNCCO)c(O)c2c1CC1CC3C(N(C)C)C(O)=C(C(N)=O)C(=O)C3(O)C(O)=C1C2=O.Cl (stereo not drawn) in your reply.
> 32 µg/mL

Supply measured MIC of C#CCN(C)CC(=O)Nc1cc(N(C)C)c2c(c1O)C(=O)C1=C(O)[C@]3(O)C(=O)C(C(N)=O)=C(O)[C@@H](N(C)C)[C@@H]3C[C@@H]1C2 in your reply.
> 32 µg/mL

Supply measured MIC of CCCCCCCNCC(=O)Nc1cc(N(C)C)c2c(c1O)C(=O)C1=C(O)[C@]3(O)C(=O)C(C(N)=O)=C(O)[C@@H](N(C)C)C3CC1C2 (stereo partly drawn) [J, dihydrochloride] in your reply.
0.5 µg/mL
